Kindly state pIC50 for each of the entries shown.
System: PC9AR cells
Experiment: MTT experiment, PC9-AR cells
Assay type: cell-based
Conditions: 48 hours, hydrochloride salt
Where a name gives a salt, the structure may show the parent alone.
Scale: pIC50 equals -log10([C]), with [C] in mol/L.

Looking for the measured pIC50 of Nc1ccc(OC(=O)c2ccc(OCCN3CCCCC3)cc2)c2ccccc12 [SMY001 (1a), dihydrochloride] , can you help?
4.41

Looking for the measured pIC50 of Nc1ccc(OCc2ccc(OCCN3CCCCC3)cc2)c2ccccc12 [SMY002 (3a), dihydrochloride] , can you help?
6.18
